Biological target: L. major amastigote
Assay: L. major intracellular amastigote luciferase assay in RAW 264.7 macrophages
Assay type: cell-based, Leishmania major
Conditions: intracellular amastigotes in RAW 264.7 macrophages, 96 h
pEC50: −log10 of the molar value.
pEC50 below 5 gives 0.0; pEC50 at or above it gives 1.0.

Below are worked cases with known answers.
[[record]]
molecule = "COc1ccc(Nc2ccnc3cc(Nc4nccc(N5CCN(C)CC5)n4)ccc23)cc1Cl [NEU-2090]"
cat = 1.0

[[record]]
molecule = "Cc1n[nH]c(C)c1Nc1ccc2c(Nc3cnccn3)ccnc2c1 [NEU-2146]"
cat = 0.0

[[record]]
molecule = "Cn1nccc1Nc1ccc2c(Nc3cnccn3)ccnc2c1 [NEU-2144]"
cat = 0.0

[[record]]
molecule = "c1cnc(Nc2ccnc3cc(Nc4nccs4)ccc23)cn1 [NEU-2141]"
cat = 0.0

[[record]]
molecule = "CN1CCN(S(=O)(=O)c2ccc(-c3ccc4c(Nc5ccnnc5)ccnc4c3)cc2)CC1 [NEU-1020]"
cat = 0.0


Has Cn1ccnc1Nc1ccc2c(Nc3cnccn3)ccnc2c1 [NEU-2147] a recorded pEC50 greater than or equal to 5?
1.0

Reported pEC50 at or above 5? COc1ccc(Nc2ccnc3cc(Nc4ccnc(N5CCN(C)CC5)n4)ccc23)cc1Cl [NEU-2093]
1.0

Exam item: decide whether the reported pEC50 for CN1CCN(S(=O)(=O)c2ccc(-c3ccc4c(Nc5cccnc5)ccnc4c3)cc2)CC1 [NEU-1019] is at least 5.
0.0
